# experimental.context: in DMSO, 323.15 K
observable: solubility (mole fraction)
Write no unit; give the number alone.

q: Value lookup for solubility (mole fraction); key = CN1COCN(Cc2cnc(Cl)s2)C1=N[N+](=O)[O-]
a: 0.164

###

# experimental.context: in 1,4-dioxane, 313.15 K
observable: solubility (mole fraction)
Write no unit; give the number alone.

q: Value lookup for solubility (mole fraction); key = CN1COCN(Cc2cnc(Cl)s2)C1=N[N+](=O)[O-]
a: 0.00763

###

# experimental.context: in acetonitrile, 288.15 K
observable: solubility (mole fraction)
Write no unit; give the number alone.

q: Value lookup for solubility (mole fraction); key = CN1COCN(Cc2cnc(Cl)s2)C1=N[N+](=O)[O-]
a: 0.0106
